assay: CREB reporter modulators without forskolin, primary screen, cell-based, PC12, CRE-LacZ reporter, unstimulated (AID 1145); settings: no forskolin, luminescence, 4.5 h, higher = more signal, called active from +8 up or from −8 down
z-score for assorted molecules
Just the number.

Observe how each entry below is paired with its result.
>  <smilesData>
CC(=O)OC[C@H]1O[C@H](CC=NOC[C@@H](C)[C@H](OCc2ccccc2)C(C)C)C=C[C@@H]1OC(C)=O

>  <z-score>
2.04

$$$$
>  <smilesData>
COc1cccc([C@H]2Oc3ccc(OC)cc3C(=NO[C@H](C)c3cn([C@@H]4COC[C@H]4O)nn3)[C@@H]2O)c1

>  <z-score>
6.84

$$$$
>  <smilesData>
CCOC(=O)CCN1C(=O)[C@H]2[C@H]3[C@H](O)C=CC(=O)[C@@H]3CC[C@H]2C1=O

>  <z-score>
-0.115

$$$$

Now look at this entry.
Item: CC(C)[C@@H](OCc1ccccc1)[C@H](C)C=NO[C@H](C)c1cn([C@H](CO)Cc2ccccc2)nn1 | z-score: 0.987
